The measured values listed here are drawn from paper doi:10.1101/228536.

- experimental-target: T1, Med15 ABD2 (Med15 277-368) (yeast, UniProt P19659 277-368)
- T1 sequence (looked up): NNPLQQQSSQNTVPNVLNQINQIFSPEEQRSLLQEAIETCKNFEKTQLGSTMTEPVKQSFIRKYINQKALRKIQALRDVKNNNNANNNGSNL
- assay-method-text: ITC
The following binders are listed with their measured Kd values.
Remember to follow the number with its unit.

binder	recorded-value
Ino2 1-41-(GS)3-96-160 (domain or fragment, yeast) MQQATGNELLGILDLDNDIDFETAYQMLSSNFDDQMSAHIHGSGSGSPHQPSMGFDQALGLKLSPSSSGLLSTNESNAIEQFLDNLISQDMMSSNASMNSESHLHIRSPKKQ	34 µM

Turning to the following binder.
# Kd lookup, item Met4 72-160 (domain or fragment, yeast, UniProt P32389 72-160, looked up) VTNRGNTNLYDHAVTPEILLEQLAYVDNFIPSLDNEFSNVDWNVNTTHNNANNNGADTFSSINANPFDLDEQLAIELSAFADDSFIFPD
20 µM
